# assay details: 14C assay with IPTG-induced recombinant E. coli cells: 14CO2 captured from [14C]-carboxyl-labeled dicamba
# run conditions: induced recombinant E. coli cells, [14C]-carboxyl-labeled dicamba, 14CO2 capture

| molecule | Dicamba Decarboxylase Activity |
| --- | --- |
| 50 (protein, listed as Streptomyces sp.) MARIVTLEEHWTDPAVTAAGMPNLLDHVPGYAAAFDPDTGMPYPRHPELLEDLGAARIADMDRHGITTQVLSLVNTFLPADVAPRLTAAANDAMAAAVEAFPGRFAAFATLPTAVPGAAADELRRCVGELGFVGTMIMGRTDGEFLDQPRFDPILRAASDLSVPVYLHPAPPPVAVSEASYAGGLSPAVSAAFRLAAWGWHQETAVHLLHLVLAGVLDRYPGLQFVLGHWGEFIPFYLDRLDESMPRRMTGLDRTFREYFRDNVFITPSGMFSQAQLRYCADTVGTDRIIHSVDFPMLGNEGAVSFLTDSHLSREDQEKIAHGNADALLGLG | High |
